The measured values listed here are drawn from patent US20190010203A1.

Biological target: CLR/RAMP2 receptor (UniProt Q16602 23-461; O60895 43-175, limits assumed)
Sequence (Q16602 23-461 limits assumed, chain 1 of 2): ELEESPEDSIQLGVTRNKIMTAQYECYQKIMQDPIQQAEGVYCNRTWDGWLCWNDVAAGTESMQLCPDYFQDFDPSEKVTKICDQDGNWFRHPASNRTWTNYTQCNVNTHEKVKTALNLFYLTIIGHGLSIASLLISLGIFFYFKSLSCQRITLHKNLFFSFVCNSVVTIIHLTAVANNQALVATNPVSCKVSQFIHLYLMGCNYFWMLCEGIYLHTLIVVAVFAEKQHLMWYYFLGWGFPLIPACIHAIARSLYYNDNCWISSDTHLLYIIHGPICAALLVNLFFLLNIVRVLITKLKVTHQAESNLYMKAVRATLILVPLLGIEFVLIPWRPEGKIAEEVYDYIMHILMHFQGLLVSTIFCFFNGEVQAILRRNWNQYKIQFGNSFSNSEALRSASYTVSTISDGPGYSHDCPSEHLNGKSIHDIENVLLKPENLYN
Sequence (O60895 43-175 limits assumed, chain 2 of 2): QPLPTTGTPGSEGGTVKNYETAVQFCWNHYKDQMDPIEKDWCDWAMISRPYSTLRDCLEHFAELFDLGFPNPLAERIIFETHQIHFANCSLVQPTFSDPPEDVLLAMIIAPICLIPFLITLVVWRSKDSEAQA
Experiment: cell-based or functional assay
Non-standard residues stand in square brackets, D forms with d. No end group written: not given here. *: point of attachment. Palmitoyl = CCCCCCCCCCCCCCCC(=O)*; AEEEA = NCCOCCOCCOCC(=O)O
Reported Max Activity % of positive control, CLR/RAMP2 arrestin assay is given for each of the following binders.
PROPERTY LABEL: Max Activity % of positive control, CLR/RAMP2 arrestin assay

INSERT INTO assay_data (binder, val) VALUES
  ('miniPEG-K(Palmitoyl)GCRFGTCTVQKLAHQIYQFTDKDKDNVDPSSPHSY-NH2 (cysteine pairing not given here) [SEQ ID NO: 94]', '82 % of positive control'),
  ('miniPEG-K(Palmitoyl)TKKTLRTGCRFGTCTVQKLAHQIYQFTDKDKDNVAPRSKISPQGY-NH2 (ends and bridges not checked) [SEQ ID NO: 70]', '68 % of positive control'),
  ('[AEEEA]K(Palmitoyl)CRFGTCTVQKLAHQIYQFTDKDKDNSAPVDPSSPHSY-NH2 (ends and bridges not checked) [SEQ ID NO: 43]', '30 % of positive control'),
  ('[AEEEA]K(Palmitoyl)GCRFGTCTVQKLAHQIYQFTDKDKDSAPVDPSSPHSY-NH2 (ends and bridges not checked) [SEQ ID NO: 46]', '104 % of positive control');
